Values were extracted from ChEMBL document CHEMBL5058577.

Would you kindly list Population Healthy Nuclei (%) for each of these compounds?
Test system: HEK-293T
Test: Multiplex assay against HEK293T
Format: toxicity, cell-based
Settings: human, 12 h, 1 µM, compound concentration 1 uM, replicate 1
One number for each entry, in %.

Worked cases, answers included:
- CCOc1c2c(c(OCC)c3ncccc13)CN(c1ccc(CS(=O)(=O)NC(=O)Cc3ccccc3OC)cc1C)C2=O: 81
- Cc1ccc(C(C)(O)c2nc3ccccc3s2)c(C)c1 (stereo not drawn): 72
- CCNC1(C(N)=O)CCN(c2ncnc3c2nc(-c2ccccc2Cl)n3-c2ccc(Cl)cc2)CC1 [OTENABANT]: 80
- CN1CCN2c3ncccc3Cc3ccccc3C2C1 (stereo not drawn) [MIRTAZAPINE]: 88
- CN1CCN(c2nc3cc(C(F)(F)F)ccc3n3cccc23)CC1.O=C(O)/C=C\C(=O)O.O=C(O)/C=C\C(=O)O: 80

Below are some compounds; for each one, tell me its Population Healthy Nuclei (%).
1. C[C@H](NC(=O)c1c(C(F)F)nn(C)c1Oc1cccc(C(F)(F)F)c1)c1ccc(C(=O)O)cc1 [PALUPIPRANT]
2. CCCN1CCC[C@@H]2Cc3n[nH]cc3C[C@H]21.Cl [QUINPIROLE HYDROCHLORIDE]

A:
[80, 84]
